pIC50 overview
# test-target: EGFR (Homo sapiens)
# Construct: Kinases are expressed as either kinase domains or full length constructs; made in house
# Sequence (P00533 25-1210, species assumed): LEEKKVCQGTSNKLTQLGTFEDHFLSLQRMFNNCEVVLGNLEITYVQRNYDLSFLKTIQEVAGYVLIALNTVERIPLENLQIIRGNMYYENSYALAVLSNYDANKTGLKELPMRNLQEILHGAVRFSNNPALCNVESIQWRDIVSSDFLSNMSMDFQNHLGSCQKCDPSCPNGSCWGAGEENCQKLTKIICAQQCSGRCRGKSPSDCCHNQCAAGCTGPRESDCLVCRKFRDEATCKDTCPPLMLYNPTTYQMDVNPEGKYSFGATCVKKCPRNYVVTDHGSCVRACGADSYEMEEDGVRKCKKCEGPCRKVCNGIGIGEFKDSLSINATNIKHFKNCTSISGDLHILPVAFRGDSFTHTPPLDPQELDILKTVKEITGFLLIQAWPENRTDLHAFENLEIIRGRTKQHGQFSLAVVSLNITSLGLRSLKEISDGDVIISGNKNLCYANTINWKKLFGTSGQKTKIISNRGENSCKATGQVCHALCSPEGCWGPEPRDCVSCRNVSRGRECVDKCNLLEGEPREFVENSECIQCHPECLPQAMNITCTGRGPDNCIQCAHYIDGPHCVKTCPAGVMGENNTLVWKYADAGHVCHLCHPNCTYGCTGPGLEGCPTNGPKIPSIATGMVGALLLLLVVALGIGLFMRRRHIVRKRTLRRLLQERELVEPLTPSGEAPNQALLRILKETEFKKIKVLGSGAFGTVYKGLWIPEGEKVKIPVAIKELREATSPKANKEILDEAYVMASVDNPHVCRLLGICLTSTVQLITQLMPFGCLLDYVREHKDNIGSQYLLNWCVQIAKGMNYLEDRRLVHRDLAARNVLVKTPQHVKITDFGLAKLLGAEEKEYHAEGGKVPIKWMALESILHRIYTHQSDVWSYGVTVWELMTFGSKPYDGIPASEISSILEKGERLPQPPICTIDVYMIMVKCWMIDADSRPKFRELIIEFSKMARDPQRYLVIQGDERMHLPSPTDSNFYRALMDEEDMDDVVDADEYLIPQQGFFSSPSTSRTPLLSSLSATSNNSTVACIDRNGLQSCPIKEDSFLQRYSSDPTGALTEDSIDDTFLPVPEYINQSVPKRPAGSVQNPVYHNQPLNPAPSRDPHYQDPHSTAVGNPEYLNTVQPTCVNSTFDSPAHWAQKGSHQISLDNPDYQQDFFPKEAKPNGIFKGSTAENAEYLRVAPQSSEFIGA
# experiment: Kinase inhibition assay (33P transfer), EGFR
# Assay type: biochemical
# condition-parameters: Table 2, kinase inhibition class; read-out: EGFR-1
pIC50: −log10 of the molar value.

>>> result("COc1cc(Nc2ncnc(Nc3ccc(C)c(O)c3)n2)cc(OC)c1OC")
"> 5.98"
>>> result("CN(c1cccc(Cl)c1)c1ncnc(Nc2ccncc2)n1")
"> 5.89"
>>> result("COc1cc(Nc2ncnc(Nc3cccc(NC(=O)O[C@@H]4CCOC4)c3)n2)cc(OC)c1OC")
"5.30 to 6.08"
>>> result("COc1cc(Nc2ncnc(Nc3nccs3)n2)cc(OC)c1OC")
"< 4.90"

// moving on: another record for pIC50
What does the data say about its pIC50? Entry: COc1cc(Nc2ncnc(-n3c(Nc4cccc(C(N)=O)c4)nc4ccccc43)n2)cc(OC)c1OC
< 5.06

====

# test-target: Zap-70 (Homo sapiens, UniProt P43403)
# Construct: Kinases are expressed as either kinase domains or full length constructs; made in house
# Sequence (P43403 whole entry, species assumed, the tested form may be a part): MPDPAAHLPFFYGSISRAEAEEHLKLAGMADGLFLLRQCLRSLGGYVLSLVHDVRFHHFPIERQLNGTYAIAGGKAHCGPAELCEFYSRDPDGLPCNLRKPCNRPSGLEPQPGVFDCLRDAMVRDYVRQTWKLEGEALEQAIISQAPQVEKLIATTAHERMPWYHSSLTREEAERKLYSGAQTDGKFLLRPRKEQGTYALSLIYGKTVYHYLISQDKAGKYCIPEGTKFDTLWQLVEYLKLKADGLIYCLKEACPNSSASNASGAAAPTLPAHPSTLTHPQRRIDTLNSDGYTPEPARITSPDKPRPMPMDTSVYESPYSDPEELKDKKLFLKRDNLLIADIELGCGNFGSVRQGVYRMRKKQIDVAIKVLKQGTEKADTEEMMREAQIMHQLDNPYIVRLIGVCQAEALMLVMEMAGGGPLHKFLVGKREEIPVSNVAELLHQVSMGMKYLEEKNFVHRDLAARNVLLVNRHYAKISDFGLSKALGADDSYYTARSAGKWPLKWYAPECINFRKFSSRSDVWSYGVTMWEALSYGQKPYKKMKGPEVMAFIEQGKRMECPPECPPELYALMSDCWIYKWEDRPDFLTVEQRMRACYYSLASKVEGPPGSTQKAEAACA
# experiment: Kinase inhibition assay (33P transfer), Zap-70
# Format: biochemical
# condition-parameters: read-out: Zap-1
# From the text: The inhibitor compounds described herein are screened in the following manner. […] Kinases are expressed as either kinase domains or full length constructs fused to glutathione S-transferase (GST) or polyHistidine tagged fusion proteins in either E. colior Baculovirus-High Five expression systems. […]
As shown below, each of these molecules has a reported IC50 value.

>>> result("COc1cc(Nc2ncnc(Nc3ncnc4[nH]cnc34)n2)cc(OC)c1OC")
"> 11.4 µM"
>>> result("COc1cccc(Nc2ncnc(Nc3cc(-c4ccccc4)n[nH]3)n2)c1")
"> 12.5 µM"
>>> result("CN(c1cccc(Cl)c1)c1ncnc(Nc2cc(-c3ccco3)[nH]n2)n1")
"1.09 to 6.53 µM"
>>> result("COc1cc(Nc2ncnc(Nc3ccc(NC(C)=O)c(C(F)(F)F)c3)n2)cc(OC)c1OC")
"> 9.41 µM"
>>> result("Nc1ncnc(-n2c(N)nc3ccccc32)n1")
"> 19.8 µM"
>>> result("c1ccc(Cn2ncc3cc(Nc4ncnc(NCc5ccco5)n4)ccc32)cc1")
"1.01 to 6.04 µM"

Lab request: please report IC50 under test system Zap-70 (Homo sapiens, UniProt P43403) for CN(c1cccc(Cl)c1)c1ncnc(-n2c(N)nc3ccccc32)n1
6.82 to 9.95 µM

Item: COc1cc(Nc2ncnc(-n3c(NCc4cccs4)nc4ccccc43)n2)cc(OC)c1OC Test system: Zap-70 (Homo sapiens, UniProt P43403) Read-out: IC50 Value: ?
> 9.19 µM

Reported IC50 for Zap-70 (Homo sapiens, UniProt P43403), given O=c1[nH]c2ccccc2n1-c1ncnc(Nc2nccc3ccccc23)n1 ?
1.13 to 6.75 µM

Lookup: IC50 / Zap-70 (Homo sapiens, UniProt P43403) / COc1cc(Nc2ncnc(-n3ncc(-c4ccccc4)c3N)n2)cc(OC)c1OC
> 10.7 µM

Record Nc1nc2ccccc2n1-c1ncnc(Nc2ccc3c(c2)OCO3)n1 : what is its IC50 with Zap-70 (Homo sapiens, UniProt P43403)?
1.15 to 6.91 µM

Form entry - test system: Zap-70 (Homo sapiens, UniProt P43403); read-out: IC50; molecule: CN(c1ccccc1)c1ncnc(-n2c(N)nc3ccccc32)n1
> 14.2 µM

====

The entries below come with measured IC50 values attached.
# test-target: PDGFRB (Homo sapiens)
# Construct: Kinases are expressed as either kinase domains or full length constructs; made in house
# Sequence (P09619 33-1106, species assumed): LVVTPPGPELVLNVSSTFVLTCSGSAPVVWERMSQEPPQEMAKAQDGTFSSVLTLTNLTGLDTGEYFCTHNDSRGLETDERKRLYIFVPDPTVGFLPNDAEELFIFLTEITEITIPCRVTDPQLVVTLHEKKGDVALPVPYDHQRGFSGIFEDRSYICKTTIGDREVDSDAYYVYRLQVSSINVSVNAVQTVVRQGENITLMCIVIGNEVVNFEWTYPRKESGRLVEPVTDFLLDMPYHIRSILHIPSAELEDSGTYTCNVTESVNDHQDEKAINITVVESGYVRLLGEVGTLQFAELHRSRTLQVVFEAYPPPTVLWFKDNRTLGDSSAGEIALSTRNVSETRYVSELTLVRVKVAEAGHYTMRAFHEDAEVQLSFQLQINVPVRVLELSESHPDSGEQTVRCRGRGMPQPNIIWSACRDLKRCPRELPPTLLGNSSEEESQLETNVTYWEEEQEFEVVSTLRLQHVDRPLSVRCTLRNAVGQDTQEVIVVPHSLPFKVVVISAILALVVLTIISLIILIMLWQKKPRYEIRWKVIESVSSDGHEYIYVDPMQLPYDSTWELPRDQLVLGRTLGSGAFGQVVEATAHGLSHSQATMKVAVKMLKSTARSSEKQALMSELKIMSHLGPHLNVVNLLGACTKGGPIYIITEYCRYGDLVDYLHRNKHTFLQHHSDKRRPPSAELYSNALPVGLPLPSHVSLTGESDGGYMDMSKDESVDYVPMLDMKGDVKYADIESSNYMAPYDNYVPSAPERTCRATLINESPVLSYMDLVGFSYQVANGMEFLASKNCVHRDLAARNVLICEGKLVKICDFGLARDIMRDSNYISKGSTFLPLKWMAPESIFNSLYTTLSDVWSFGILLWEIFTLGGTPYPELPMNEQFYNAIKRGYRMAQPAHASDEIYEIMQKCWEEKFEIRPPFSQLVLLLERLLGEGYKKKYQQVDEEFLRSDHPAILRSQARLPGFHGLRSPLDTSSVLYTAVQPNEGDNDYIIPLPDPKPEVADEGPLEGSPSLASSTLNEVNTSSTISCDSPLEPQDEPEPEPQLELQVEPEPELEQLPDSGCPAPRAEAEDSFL
# experiment: Kinase inhibition assay (33P transfer), PDGFRB
# Type: biochemical
# condition-parameters: read-out: PDGFRB-1

Record excerpt, results attached:
>>> result("COc1cc(Nc2ncnc(Nc3ccc4[nH]ccc4c3)n2)cc(OC)c1OC")
"< 1020 nM"
>>> result("COc1cc(Nc2ncnc(-n3c(NCC(C)C)nc4ccccc43)n2)cc(OC)c1OC")
"< 890 nM"
>>> result("COc1ccc(Nc2ncnc(N(C/C=C/c3ccccc3)c3ccc(Cl)cc3)n2)cc1OC")
"> 9490 nM"
>>> result("COc1cc(Nc2ncnc(-n3c(NCc4cccc(Br)c4)nc4ccccc43)n2)cc(OC)c1OC")
"< 711 nM"
>>> result("COc1ccc(Nc2nc3ccccc3n2-c2ncnc(Nc3cc(OC)c(OC)c(OC)c3)n2)cc1OC")
"> 8500 nM"

Reported IC50 for COc1cc(Nc2ncnc(Nc3cc(-c4ccco4)n[nH]3)n2)cc(OC)c1 : what is it?
6330 to 9230 nM

Recorded IC50 for COc1cc(Nc2ncnc(-n3c(NCc4ccccc4)nc4ccccc43)n2)cc(OC)c1OC , please?
< 827 nM

Consider the compound shown here: COc1cc(Nc2ncnc(N(c3ccc(Cl)cc3)c3nc4ccccc4[nH]3)n2)cc(OC)c1OC What is its recorded IC50?
794 to 4760 nM

====

# test-target: Lck (Homo sapiens, UniProt P06239)
# Construct: Kinases are expressed as either kinase domains or full length constructs; made in house
# Sequence (P06239 whole entry, species assumed, the tested form may be a part): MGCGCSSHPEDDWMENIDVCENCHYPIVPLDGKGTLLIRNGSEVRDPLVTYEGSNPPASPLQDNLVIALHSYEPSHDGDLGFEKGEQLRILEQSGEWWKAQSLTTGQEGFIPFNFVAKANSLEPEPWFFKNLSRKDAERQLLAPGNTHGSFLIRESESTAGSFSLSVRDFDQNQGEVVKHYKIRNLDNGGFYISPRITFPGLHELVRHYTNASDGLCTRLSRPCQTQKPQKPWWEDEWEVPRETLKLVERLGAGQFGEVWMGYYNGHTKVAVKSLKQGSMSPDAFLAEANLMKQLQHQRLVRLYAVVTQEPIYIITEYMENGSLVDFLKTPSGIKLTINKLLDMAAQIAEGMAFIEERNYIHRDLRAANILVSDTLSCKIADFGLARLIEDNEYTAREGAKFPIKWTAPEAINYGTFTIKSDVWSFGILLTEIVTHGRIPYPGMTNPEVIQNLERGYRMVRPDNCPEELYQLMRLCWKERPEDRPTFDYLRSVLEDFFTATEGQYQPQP
# experiment: Kinase inhibition assay (33P transfer), Lck
# Assay type: biochemical
# condition-parameters: Table 3; read-out: Lck-1
pIC50: −log10 of the molar value.
observable: pIC50

>>> result("COc1cc(Nc2ncnc(-n3c(=O)oc4ccccc43)n2)cc(OC)c1OC [Compound 423]")
"5.22 to 5.99"

So what does the record say about pIC50 for COc1ccc(Nc2ncnc(-n3c(N)nc4ccccc43)n2)cc1OC [Compound 285] ?
5.18 to 5.96

Which pIC50 value belongs to COc1cc(Nc2ncnc(Nc3cc(-c4ccccc4)n[nH]3)n2)cc(OC)c1OC [Compound 102] ?
> 6.02

Item COc1ccc(Nc2ncnc(Nc3ccc(OCc4ccccc4)cc3)n2)cc1O [Compound 171] has what recorded pIC50?
< 4.97

Report pIC50 for COc1cc(Nc2ncnc(-c3c(O)[nH]c4ccccc34)n2)cc(OC)c1OC [Compound 380] please.
< 4.94

====

# test-target: Lck (Homo sapiens)
# Construct: Kinases are expressed as either kinase domains or full length constructs; made in house
# experiment: Kinase inhibition assay (33P transfer), Lck
# Format: biochemical
# condition-parameters: Table 3; read-out: Lck-1
pIC50: −log10 of the molar value.
observable: pIC50

Field: example entries. Status: answers known.
>>> result("COc1cc(Nc2ncnc(-n3ncc4ccccc43)n2)cc(OC)c1OC")
"5.20 to 5.98"
>>> result("COc1cc(Nc2ncnc(-c3ccc(C)cc3)n2)cc(OC)c1OC")
"< 4.89"
>>> result("COc1cc(Nc2ncnc(-n3ccc4cccnc43)n2)cc(OC)c1OC")
"5.20 to 5.98"
>>> result("COc1cc(Nc2ncnc(Nc3ccc(F)c(Cl)c3)n2)cc(OC)c1OC")
"> 6.01"
>>> result("NC(=O)[C@H](CO)Nc1ncnc(-n2c(=O)[nH]c3ccccc32)n1")
"< 4.85"
>>> result("COc1cc(Nc2ncnc(N(c3ccccc3)c3nc4ccccc4[nH]3)n2)cc(OC)c1OC")
"5.29 to 6.07"
>>> result("COc1cc(Nc2ncnc(-n3ccc4ccc(Cl)cc43)n2)cc(OC)c1OC")
"5.23 to 6.01"
>>> result("COc1ccc(Nc2ncnc(Nc3ccc(OCc4ccccc4)cc3)n2)cc1OC")
"< 4.98"
>>> result("COc1cc(Nc2ncnc(-n3cc(CCO)c4ccccc43)n2)cc(OC)c1OC")
"< 4.97"
>>> result("COc1cc(Nc2ncnc(Nc3ncncn3)n2)cc(OC)c1OC")
"< 4.90"

Could you tell me which pIC50 is on file for COc1cc(Nc2ncnc(Nc3ccc(C(=O)O)cc3)n2)cc(OC)c1OC ?
5.06 to 5.22

Suppose we examine the compound NC(=O)c1cccc(Nc2ncnc(-c3cccs3)n2)c1 ; what pIC50 value has been reported?
< 4.82

// query pIC50 value for entry COc1cccc(Nc2ncnc(Nc3ccc(OCc4ccccc4)cc3)n2)c1
< 4.95

Requested read-out: pIC50. Entry: COc1cc(Nc2ncnc(-n3ccc4cc(O)ccc43)n2)cc(OC)c1OC
> 5.99

Name the recorded pIC50 for COc1cc(Nc2ncnc(Nc3ccc(OCc4ccccc4)cc3)n2)cc(OC)c1OC .
5.28 to 6.06

Value lookup for pIC50; key = COc1cc(Nc2ncnc(Nc3cc(OC)c(OC)c(OC)c3)n2)cc(OC)c1OC
5.27 to 6.04

May I ask what pIC50 has been recorded for COc1cc(Nc2ncnc(Nc3nc4ccccc4n3C)n2)cc(OC)c1OC ?
< 4.96

Would you mind telling me what pIC50 value was observed for O=c1[nH]c2ccccc2n1-c1ncnc(Nc2cccc([N+](=O)[O-])c2)n1 ?
< 4.89

====

# test-target: Itk (Homo sapiens, UniProt Q08881)
# Construct: Kinases are expressed as either kinase domains or full length constructs; made in house
# Sequence (Q08881 1-620): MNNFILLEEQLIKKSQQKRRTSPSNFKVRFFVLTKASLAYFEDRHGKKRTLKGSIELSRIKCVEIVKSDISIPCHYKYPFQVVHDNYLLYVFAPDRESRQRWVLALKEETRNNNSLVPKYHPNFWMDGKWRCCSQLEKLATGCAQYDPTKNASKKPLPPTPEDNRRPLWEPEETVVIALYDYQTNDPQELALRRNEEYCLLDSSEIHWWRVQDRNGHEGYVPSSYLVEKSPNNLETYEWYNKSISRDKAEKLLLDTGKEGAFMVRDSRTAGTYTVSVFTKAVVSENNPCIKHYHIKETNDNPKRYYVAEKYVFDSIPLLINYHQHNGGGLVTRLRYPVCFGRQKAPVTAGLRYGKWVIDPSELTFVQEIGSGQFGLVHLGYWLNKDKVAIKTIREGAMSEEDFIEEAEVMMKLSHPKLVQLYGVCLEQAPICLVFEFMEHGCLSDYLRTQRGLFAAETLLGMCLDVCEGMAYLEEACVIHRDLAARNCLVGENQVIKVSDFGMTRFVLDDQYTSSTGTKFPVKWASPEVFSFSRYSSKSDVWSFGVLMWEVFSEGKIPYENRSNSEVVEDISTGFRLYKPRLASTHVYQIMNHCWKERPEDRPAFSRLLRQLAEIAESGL
# experiment: Kinase inhibition assay (33P transfer), Itk
# Assay type: biochemical
# condition-parameters: Table 3; read-out: Itk-1
// IC50 lookup, one value per entry

Record excerpt, results attached:
>>> result("COc1cc(Nc2ncnc(Nc3nccs3)n2)cc(OC)c1OC")
"> 12.5 µM"
>>> result("COc1cc(Nc2ncnc(Nc3ccc4ccccc4c3)n2)cc(OC)c1OC")
"> 11.2 µM"

Give recorded IC50 with Itk (Homo sapiens, UniProt Q08881) for the following compound: COc1ccc(Nc2ncnc(Nc3ccc(F)c(Cl)c3)n2)cc1OC
> 12 µM

Record lookup: for Itk (Homo sapiens, UniProt Q08881), what IC50 belongs to COc1cc(Nc2ncnc(-n3c(N)nc4ccccc43)n2)cc(OC)c1OC ?
1.02 to 6.1 µM

Form field: IC50 recorded for COc1cc(Nc2ncnc(-n3c(N)nc4ccccc43)n2)cc(OCCN2CCOCC2)c1OC with Itk (Homo sapiens, UniProt Q08881) (enter value)
4.87 to 7.11 µM

Find IC50 (Itk (Homo sapiens, UniProt Q08881)) for the entry COc1cc(Nc2ncnc(Nc3ccc(S(=O)(=O)NC(C)=O)cc3)n2)cc(OC)c1OC
> 9.48 µM

What measured IC50 is associated with Nc1nc2ccccc2n1-c1ncnc(Cl)n1 on Itk (Homo sapiens, UniProt Q08881)?
> 18.2 µM

# value lookup — system Itk (Homo sapiens, UniProt Q08881), readout IC50, item COc1cc(Nc2ncnc(Nc3cc(-c4ccco4)n[nH]3)n2)cc(OC)c1OC
0.977 to 5.86 µM

Query the reported IC50 for Itk (Homo sapiens, UniProt Q08881); item: Clc1cc(Cl)cc(Nc2ncnc(-n3cccc3)n2)c1
> 14.7 µM
